Values from patent US20260365653A1

Examples of molecules with documented IC50 follow.
- TGT: mutEGFR (D770_N771insSVD) (Homo sapiens, UniProt P00533, DUP768-770)
- Construct: GST-EGFR #3 (SVD between D770 and N771); made in house; host or cells: Sf9 insect cells (baculovirus)
- Sequence (P00533 with tags, fused parts or gaps DUP768-770): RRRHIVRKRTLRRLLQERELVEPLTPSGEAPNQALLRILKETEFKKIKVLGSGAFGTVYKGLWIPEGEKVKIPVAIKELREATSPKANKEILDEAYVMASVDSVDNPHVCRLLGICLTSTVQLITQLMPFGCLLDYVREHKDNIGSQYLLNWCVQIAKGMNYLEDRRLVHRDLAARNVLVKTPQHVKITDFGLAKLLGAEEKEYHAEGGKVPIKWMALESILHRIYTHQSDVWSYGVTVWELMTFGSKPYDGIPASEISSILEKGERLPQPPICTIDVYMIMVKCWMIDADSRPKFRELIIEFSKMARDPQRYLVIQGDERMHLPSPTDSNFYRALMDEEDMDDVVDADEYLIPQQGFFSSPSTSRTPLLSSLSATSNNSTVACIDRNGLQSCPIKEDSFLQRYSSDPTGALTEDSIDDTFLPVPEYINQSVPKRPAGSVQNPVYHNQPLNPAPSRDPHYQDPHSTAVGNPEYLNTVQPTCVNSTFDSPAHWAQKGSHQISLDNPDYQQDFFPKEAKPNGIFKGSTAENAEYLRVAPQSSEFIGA
- ASSAY NAME: Exon20-Mutant-EGFR (D770_N771insSVD) kinase assay (TR-FRET)
- Format: biochemical
- MEASUREMENT SETUP: mutEGFR (D770_N771insSVD) kinase assay IC50, Table 2a; D770_N771insSVD; 2 mM ATP

MOLECULE	IC50
C=CC(=O)N1CCn2nc(-c3ccc(Cl)cc3)c(-c3ccnc4[nH]cc(C)c34)c2C1 [Example 175]	0.0976 µM
COc1ccc(-c2nn3c(c2-c2ccnc4[nH]cc(C)c24)CN(C(=O)/C=C/CN(C)C)CC3)cc1 [Example 60]	0.939 µM
C=CC(=O)N1CCn2nc(-c3ccc(C(F)(F)F)c(F)c3)c(-c3ccncc3)c2C1 [Example 134]	0.0021 µM
C=CC(=O)N1Cc2c(-c3ccncc3)c(-c3ccc(Cl)c(C)c3)nn2CC1(C)C [Example 212]	0.00561 µM
CC(C)(C)NC/C=C/C(=O)N1CCn2nc(-c3ccc(Cl)cc3)c(-c3ccncc3)c2C1 [Example 167]	0.000256 µM
C=CC(=O)N1CCn2nc(-c3ccc(C(F)(F)F)cc3)c(-c3ccnc4[nH]cc(C)c34)c2C1 [Example 48]	0.242 µM

---

# maps each entry to its IC50
- TGT: mutEGFR (D770_N771insNPG, T790) (Homo sapiens, UniProt P00533, INS770NPG/T790M)
- Construct: exact insNPG construct not described; in-house EGFR proteins were N-terminal GST fusions from baculovirus/insect cells (borders R669-A1210 given only for WT, insSVD, insASV)
- Sequence (P00533 with tags, fused parts or gaps INS770NPG/T790M limits assumed): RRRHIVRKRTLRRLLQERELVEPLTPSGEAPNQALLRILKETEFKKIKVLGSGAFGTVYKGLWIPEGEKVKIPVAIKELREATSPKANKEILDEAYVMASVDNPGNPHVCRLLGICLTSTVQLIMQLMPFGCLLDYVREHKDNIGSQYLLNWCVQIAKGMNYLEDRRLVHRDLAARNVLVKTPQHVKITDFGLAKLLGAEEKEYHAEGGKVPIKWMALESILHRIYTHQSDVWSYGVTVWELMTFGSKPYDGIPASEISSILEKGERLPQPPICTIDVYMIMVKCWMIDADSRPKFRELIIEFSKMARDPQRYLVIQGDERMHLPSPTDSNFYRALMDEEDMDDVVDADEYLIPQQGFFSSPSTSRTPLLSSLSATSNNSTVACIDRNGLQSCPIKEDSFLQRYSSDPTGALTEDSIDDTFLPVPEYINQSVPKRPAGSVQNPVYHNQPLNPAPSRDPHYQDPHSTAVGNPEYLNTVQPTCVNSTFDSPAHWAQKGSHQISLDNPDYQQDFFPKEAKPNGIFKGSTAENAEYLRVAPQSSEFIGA
- ASSAY NAME: mutEGFR (D770_N771insNPG, T790) kinase assay
- Type: biochemical
- MEASUREMENT SETUP: Table 2a, D770_N771insNPG

COMPOUND	TGT	IC50 (nM)
CC1c2c(-c3ccncc3)c(-c3ccc(Cl)cc3F)nn2CCN1C(=O)/C=C/CN(C)C (racemic) [Example 244]	mutEGFR (D770_N771insNPG, T790) (Homo sapiens, UniProt P00533, INS770NPG/T790M)	1.99
C=CC(=O)N1CCn2nc(-c3cccc(C#N)c3)c(-c3ccncc3)c2C1	mutEGFR (D770_N771insNPG, T790) (Homo sapiens, UniProt P00533, INS770NPG/T790M)	19.7
Cc1c[nH]c2nccc(-c3c(-c4ccc(Cl)cc4)nn4c3CN(C(=O)/C=C/CN(C)C)CC4)c12	mutEGFR (D770_N771insNPG, T790) (Homo sapiens, UniProt P00533, INS770NPG/T790M)	217
C=CC(=O)N1Cc2c(-c3ccncc3)c(-c3ccc(Cl)cc3F)nn2C[C@@H]1C	mutEGFR (D770_N771insNPG, T790) (Homo sapiens, UniProt P00533, INS770NPG/T790M)	1.03
CC1c2c(-c3ccnc4[nH]ccc34)c(-c3ccc(F)cc3)nn2CCN1C(=O)/C=C/CN(C)C (single isomer, unassigned; isomer 1) [Example 255]	mutEGFR (D770_N771insNPG, T790) (Homo sapiens, UniProt P00533, INS770NPG/T790M)	9610
C=CC(=O)N1Cc2c(-c3ccncc3)c(-c3ccc4ccsc4c3)nn2CC1C (racemic)	mutEGFR (D770_N771insNPG, T790) (Homo sapiens, UniProt P00533, INS770NPG/T790M)	0.331
CN(C)C/C=C/C(=O)N1CCn2nc(-c3ccccc3Cl)c(-c3ccncc3)c2C1	mutEGFR (D770_N771insNPG, T790) (Homo sapiens, UniProt P00533, INS770NPG/T790M)	27.5
CNC(=O)CC1CN(C(=O)/C=C/CN(C)C)Cc2c(-c3ccncc3)c(-c3ccc(F)cc3)nn21 (racemic)	mutEGFR (D770_N771insNPG, T790) (Homo sapiens, UniProt P00533, INS770NPG/T790M)	15.3

---

- TGT: mutEGFR (D770_N771insNPG, T790) (Homo sapiens, UniProt P00533, INS770NPG/T790M)
- Construct: exact insNPG construct not described; in-house EGFR proteins were N-terminal GST fusions from baculovirus/insect cells (borders R669-A1210 given only for WT, insSVD, insASV)
- ASSAY NAME: mutEGFR (D770_N771insNPG, T790) kinase assay
- Type: biochemical
- MEASUREMENT SETUP: Table 2a, D770_N771insNPG
pIC50: −log10 of the molar value.

MOLECULE	TGT	pIC50
C=CC(=O)N1CCn2nc(-c3ccc(F)cc3)c(-c3ccnc4[nH]ccc34)c2C1 [Example 22]	mutEGFR (D770_N771insNPG, T790) (Homo sapiens, UniProt P00533, INS770NPG/T790M)	8.48
COc1ccc(-c2nn3c(c2-c2ccncc2)CN(C(=O)/C=C/CN(C)C)CC3)cc1 [Example 30]	mutEGFR (D770_N771insNPG, T790) (Homo sapiens, UniProt P00533, INS770NPG/T790M)	7.63
Cc1c[nH]c2nccc(-c3c(-c4ccc(F)cc4)nn4c3CN(C(=O)/C=C/CN(C)C)[C@@H](C)C4)c12 [Example 257]	mutEGFR (D770_N771insNPG, T790) (Homo sapiens, UniProt P00533, INS770NPG/T790M)	7.68

---

Reported IC50 values for a set of compounds
- Test system: BA/F3 (insSVD) cells
- ASSAY NAME: Ba/F3-EGFR-insSVD cell survival assay (Cell Titer-Glo)
- Type: cell-based
- MEASUREMENT SETUP: Mus musculus, BaF3, 48 h, Table 3a, cell survival, Cell Titer-Glo, with 10 ng/ml EGF, without IL-3

CPD SMILES	IC50
C#Cc1ccc(-c2nn3c(c2-c2ccncc2)CN(C(=O)/C=C/CN(C)C)CC3)cc1	4680 nM
C=CC(=O)N1CCn2nc(-c3cc(Cl)ccc3F)c(-c3ccncc3)c2C1	44.2 nM
CN(C)C/C=C/C(=O)N1CCn2nc(Nc3ccccc3)c(-c3ccncc3)c2C1	531 nM
C=CC(=O)N1CCn2nc(-c3ccc(F)cc3)c(-c3ccncc3OC)c2C1	359 nM
CN(C)C/C=C/C(=O)N1Cc2c(-c3ccncc3)c(-c3ccc(Cl)cc3)nn2C(C)(C)C1	41.7 nM

---

- TGT: mutEGFR (D770_N771insSVD) (Homo sapiens, UniProt P00533, DUP768-770)
- Construct: GST-EGFR #3 (SVD between D770 and N771); made in house; host or cells: Sf9 insect cells (baculovirus)
- ASSAY NAME: Exon20-Mutant-EGFR (D770_N771insSVD) kinase assay (TR-FRET)
- Type: biochemical
- MEASUREMENT SETUP: mutEGFR (D770_N771insSVD) kinase assay IC50, Table 2a; D770_N771insSVD; 2 mM ATP
IC50: recorded values

COMPOUND	TGT	UNITS LABEL	IC50
C=CC(=O)N1CCn2nc(-c3ccc(C(F)(F)F)cc3F)c(-c3ccnc4[nH]cc(C)c34)c2C1	mutEGFR (D770_N771insSVD) (Homo sapiens, UniProt P00533, DUP768-770)	nM	176
C=CC(=O)N1Cc2c(-c3ccncc3)c(-c3ccc(Cl)cc3F)nn2C(C)C1 (single isomer, unassigned; isomer 1)	mutEGFR (D770_N771insSVD) (Homo sapiens, UniProt P00533, DUP768-770)	nM	0.117
Cc1cccc(-c2nn3c(c2-c2ccncc2)CN(C(=O)/C=C/CN(C)C)CC3)c1	mutEGFR (D770_N771insSVD) (Homo sapiens, UniProt P00533, DUP768-770)	nM	1
CC1c2c(-c3ccncc3)c(-c3ccc(Cl)cc3F)nn2CCN1C(=O)/C=C/CN(C)C (racemic) [Example 244]	mutEGFR (D770_N771insSVD) (Homo sapiens, UniProt P00533, DUP768-770)	nM	0.749
CN1CC=C(C(=O)N2CCn3nc(-c4ccc(Cl)cc4F)c(-c4ccncc4)c3C2)C1	mutEGFR (D770_N771insSVD) (Homo sapiens, UniProt P00533, DUP768-770)	nM	30.3
C=CC(=O)N1CCn2nc(-c3ccc(OC)cc3)c(-c3ccnc4[nH]cc(C)c34)c2C1	mutEGFR (D770_N771insSVD) (Homo sapiens, UniProt P00533, DUP768-770)	nM	864
CN(C)C/C=C/C(=O)N1CCn2nc(-c3ccc(F)cc3)c(-c3ccncc3)c2C1	mutEGFR (D770_N771insSVD) (Homo sapiens, UniProt P00533, DUP768-770)	nM	0.729
Cc1c[nH]c2nccc(-c3c(-c4ccc(F)cc4)nn4c3CN(C(=O)/C=C/CN(C)C)[C@H](C)C4)c12	mutEGFR (D770_N771insSVD) (Homo sapiens, UniProt P00533, DUP768-770)	nM	138
CN(C)C/C=C/C(=O)N1CCn2nc(-c3ccc(F)cc3)c(-c3ccnc(Nc4ccccc4)c3)c2C1	mutEGFR (D770_N771insSVD) (Homo sapiens, UniProt P00533, DUP768-770)	nM	1.17
CCOc1ccc(-c2nn3c(c2-c2ccncc2)CN(C(=O)/C=C/CN(C)C)CC3)cc1	mutEGFR (D770_N771insSVD) (Homo sapiens, UniProt P00533, DUP768-770)	nM	36
O=C(C#CCN1CCOCC1)N1CCn2nc(-c3ccc(Cl)cc3F)c(-c3ccncc3)c2C1	mutEGFR (D770_N771insSVD) (Homo sapiens, UniProt P00533, DUP768-770)	nM	0.731
C=CC(=O)N1CCn2nc(-c3ccc(Cl)cc3F)c(-c3ccncc3)c2C1C (single isomer, unassigned; isomer 1) [Example 278]	mutEGFR (D770_N771insSVD) (Homo sapiens, UniProt P00533, DUP768-770)	nM	0.204
COc1cccc(-c2nn3c(c2-c2ccncc2)CN(C(=O)/C=C/CN(C)C)CC3)c1	mutEGFR (D770_N771insSVD) (Homo sapiens, UniProt P00533, DUP768-770)	nM	6.43
C=CC(=O)N1CCn2nc(-c3ccc4cc[nH]c4c3)c(-c3ccncc3)c2C1	mutEGFR (D770_N771insSVD) (Homo sapiens, UniProt P00533, DUP768-770)	nM	0.0825
C=CC(=O)N1CCn2nc(-c3ccc(F)cc3)c(-c3ccnc4[nH]cc(C)c34)c2C1C (single isomer, unassigned; isomer 2) [Example 250]	mutEGFR (D770_N771insSVD) (Homo sapiens, UniProt P00533, DUP768-770)	nM	435
